- System: ATP;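 further: ATP exposure 15 min at 22 °C before imaging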
- Assay text: switch fluorescence ratio, 500 uM ATP over buffer (Cy3 cluster intensity, sum of 5 cycles each) (fold (ratio)); higher = stronger signal-on switching upon ATP binding; sequences stand for … in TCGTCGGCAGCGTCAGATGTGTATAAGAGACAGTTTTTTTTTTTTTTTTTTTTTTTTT…TC
- Condition set: aptamer strand: ATP DNA aptamer (quencher-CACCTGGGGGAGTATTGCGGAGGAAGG + anchor), 100 nM annealed; ATP concentration: 500 uM
Parameter: switch fluorescence ratio

GTGGCGCTTT
0.976
TATTGCTATT
0.972
AAACAGAATG
0.975
TATTGATTGG
0.998
ATGTGCGCAC
1
TAATGGTTAG
1.02
AATGGTGGTT
0.996
GGTAGTACTG
0.995
TTTTTTTAT
1.01
TTCGTATAAG
0.994
TTAATTGATG
1.01
TTGAGGTTGG
1
CGGTTGTTTT
1.02
TTTATGGAGT
1.02
TTTGGGGGAT
1.02
TCAGGAGGGG
0.997
GCTTTCACGA
0.988
AATTTAAGGT
0.977
TTAGTTAGTT
0.98
GGTTTTGCAG
0.995
AAATTCGTAT
0.998
CACGGGGTTG
0.982
GTTTGAAGGG
0.974
GCCGGTCGGG
0.985
GATCTGCCTG
0.985
GCGTTTTGGG
0.979
CTTGTGAGGA
1
GAGATGTTAG
0.971
GTAATGGATC
0.986
AATGGAACGG
1.02
GATGGTAACT
0.984
CGTAGGTGTG
1.02
TGCTTGTCTC
1
ATCGGTGGGA
0.992
AGATAGGTTG
0.974
GGAGTGATTT
1
ATGAAAAGGG
1
GCGTCTAAGG
0.981
GCCTGCATTT
1.02
TTGCATGGGT
1.01
TATGTCGCCA
1.01
GCGATCCTGT
1.02
TGTGGGGATT
1.02
GCGTTTTATT
0.976
CGGGGGTGCT
0.966
ACCCGGGCTT
0.995
CATTGAGTTC
0.978
CGGTGAGGGG
0.989
GGGCGAGCTC
0.998
AGGTGTGTCT
1.02
GGGAAAGTCG
1
GTGTACTGGG
0.993
TACTTTTGGA
1.02
TCATTAGCCT
1.08
GCTATAGCGT
0.996
AGAGTAACGG
0.995
TTTGCGCTTT
1.1
GGGGGAAAGG
1
CATGAAGCTG
1.02
GGAGAGGGCT
1.01
TTTACCCATC
1.04
TTCGGCCCGA
1.01
AGGGCGTTGT
0.969
TCTTTTTTTA
1.02

====

- System: ATP;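 further: ATP exposure 15 min at 22 °C before imaging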
- Assay text: switch fluorescence ratio, 500 uM ATP over buffer (Cy3 cluster intensity, sum of 5 cycles each) (fold (ratio)); higher = stronger signal-on switching upon ATP binding; sequences stand for … in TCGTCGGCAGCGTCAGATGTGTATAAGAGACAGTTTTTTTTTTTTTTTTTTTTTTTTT…TC
- Condition set: aptamer strand: ATP DNA aptamer (quencher-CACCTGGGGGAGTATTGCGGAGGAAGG + anchor), 100 nM annealed; ATP concentration: 500 uM
// values below are reported switch fluorescence ratio
Parameter: switch fluorescence ratio

ATATAGAGGG
0.996
AGCTTCGGAC
1.35
TATAATGCTC
1.01
GGTGAAGTGC
0.992
TGGGGGCTGG
0.991
TAGTTATTAG
1
ATGGTATAGG
1.01

====

- Test system: ATP;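 further: ATP exposure 15 min at 22 °C before imaging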
- Assay text: switch fluorescence ratio, 500 uM ATP over buffer (Cy3 cluster intensity, sum of 5 cycles each) (fold (ratio)); higher = stronger signal-on switching upon ATP binding; sequences stand for … in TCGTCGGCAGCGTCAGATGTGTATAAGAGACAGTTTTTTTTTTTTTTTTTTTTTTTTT…TC
- Condition set: aptamer strand: ATP DNA aptamer (quencher-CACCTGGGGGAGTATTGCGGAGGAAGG + anchor), 100 nM annealed; ATP concentration: 500 uM
// values below are reported switch fluorescence ratio
Parameter: switch fluorescence ratio

CGTTTGTTCC
1.03
AATGACGATG
1.02
GTGGTTCTTG
0.99

====

// values below are reported switch fluorescence ratio
- System: ATP;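 further: ATP exposure 15 min at 22 °C before imaging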
- Assay text: switch fluorescence ratio, 500 uM ATP over buffer (Cy3 cluster intensity, sum of 5 cycles each) (fold (ratio)); higher = stronger signal-on switching upon ATP binding; sequences stand for … in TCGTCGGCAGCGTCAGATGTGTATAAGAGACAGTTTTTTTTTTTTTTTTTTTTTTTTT…TC
- Condition set: aptamer strand: ATP DNA aptamer (quencher-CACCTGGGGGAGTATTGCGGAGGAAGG + anchor), 100 nM annealed; ATP concentration: 500 uM
Parameter: switch fluorescence ratio

AGTTTATTC
1.01
GGTGATGTGT
1
GATATTTGTG
0.995
ATGAGGTGCT
1.02
ATTACTTTTC
1.01
TTTTTTTTCA
1.01
GGGTGATCGA
0.98
AGTGGAGGAC
1.02
GGTCCTGTTT
0.994
TATAAACTTT
1.01
ACGAGGACAG
1.06
ACGTTTGGAT
1.02
ATGCTGTTGC
0.963
TGATAAATAC
1.33
CGGTAGGTGG
1.01
AAGGCAAATT
0.986
GTGTAAGGGG
0.994
TTAAGGGGGT
1.03
GGAGGAAAGT
1
CACTGGCATG
0.998
GGTCGCCTCA
0.969
GCTTTTGCTG
0.997
TTGTTCTGGG
0.972
TTTGTACTTC
1.02
ATGGTATATA
0.982
AGTGTTGTTG
0.973
CGGGATGATC
0.997
CGAGGTGGGT
1.01
CGTGGGGAAG
0.998
GGACATATTA
1
GGCTGGGCGA
0.983
TTTTGACAGT
0.996
CGGTACAAGT
1
ATTGGGATGA
0.976
TTGGGGGCAA
1.57
ATTTTGAGAC
0.995
GGGGGTTGGA
1.01

====

- System: ATP;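 further: ATP exposure 15 min at 22 °C before imaging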
- Assay text: switch fluorescence ratio, 500 uM ATP over buffer (Cy3 cluster intensity, sum of 5 cycles each) (fold (ratio)); higher = stronger signal-on switching upon ATP binding; sequences stand for … in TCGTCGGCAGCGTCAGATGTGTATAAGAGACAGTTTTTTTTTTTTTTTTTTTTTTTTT…TC
- Condition set: aptamer strand: ATP DNA aptamer (quencher-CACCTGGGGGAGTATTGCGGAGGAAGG + anchor), 100 nM annealed; ATP concentration: 500 uM
// values below are reported switch fluorescence ratio
Parameter: switch fluorescence ratio

TGGGTAAGTG
0.975
GGTGGTGACT
1.01
GGGTGGACAG
0.975
GTTGGGCTTT
0.98
TATAAACAGG
0.998
TTTTAATTTC
0.955
GAGATTTAGC
1.03
TCTGTTTTAT
0.976
GGGGCGGGGG
1.02
GATGTTTTGA
1
AGTTGATGGG
0.978
TGAAAGTGGA
1.05
GGTTTGGGGT
0.99
ACCGGTAAAT
1.01
TTAATGGGGG
1.06
CTGGACCGGC
0.967
TGTTAGATGA
0.976
GGCATGAGGT
1
ATTAAACCAG
1.1
GAGCTCACGG
1.02
GTTTGAAGGT
1.01
ATCGATTATC
0.988
AGGGAGAACG
0.961
TCACGGGGGC
0.976
AAAACGAATG
1.05
ATGGGGCACG
0.987
TTGTAATGAG
1.04
TGATATTGTG
0.994
AAATGGGAGC
0.99
TTAATTGGTG
1.02
TTCGAGTATT
0.99
AATTGACTTT
1.04
TTCCATTGTA
1.02
GAGTTTTGGA
1.02
CAATAAAATC
0.992
GAATTTAAAG
1.01
GCTTATGAAC
1.02
CGGTTGGTTT
1.02
ACTTGTTTGC
1.03
ATCAGCGCGG
1.01
ACGCATTATT
1.62
CGCAGGGAGT
1.04
AGAGATCCGG
0.981
GATCTTGGGT
1.11
CTCCTCTACC
1.64
TCAGAATATT
0.978
CCTTTATGGG
0.995
GTTGTTTAGC
0.974
TAAATAATCG
0.968
GATTATTTGG
0.986
GGGTAAGGGT
1.13
ACCGTTTTGT
1.02
GGGATGTTGG
1.01
TTATCGGTCT
0.985
ATAAAAAAGG
1.01
ACATTTATGT
0.994
GGTTTAAATT
1
TAACTCAAGA
0.998
TGTGAGTGTA
1.01
TCGCCTGGCG
0.972
TTTTATTTTT
0.997
GCTAATTTTT
0.996
TATCCACATA
1.1
CGGGAGCCCA
1.02
CAAGCTAGCG
1.04
AGTATGGGGG
1.02
GCTTAAGAGG
1.03
AATAATCAGG
0.993
TATAGGGAAT
0.984
CCAGTAAGTG
1.09
TTCCTTTCAA
1.23
TTCAGGTATG
1.01
AAAACGTGGG
1.02
AGGTGGGGGC
1
CCAATCACGG
1.09
